- Assay notes: total protein half-life in vivo (active degradation + dilution); higher = more stable protein
- Experimental context: E. coli NCM3722 delta-hslV; growth: N-lim chemostat; doubling time 6 h
Quantity kind: total protein half-life in vivo (h)

>>> value_reported("MIVRPQQHWLRRIFVWHGSVLSKISSRLLLNFLFSIAVIFMLPWYTHLGIKFTLAPFSILGVAIAIFLGFRNNAGYARYVEARKLWGQLMIASRSLLREVKTTLPDSASVREFARLQIAFAHCLRMTLRKQPQAEVLAHYLKTEDLQRVLASNSPANRILLIMGEWLAVQRRNGQLSDILFISLNDRLNDISAVLAGCERIAYTPIPFAYTLILHRTVYLFCIMLPFALVVDLHYMTPFISVLISYTFISLDCLAEELEDPFGTENNDLPLDAICNAIEIDLLQMNDEAEIPAKILPDRHYQLT")
5.52
>>> value_reported("MSFFHASQRDALNQSLAEVQGQINVSFEFFPPRTSEMEQTLWNSIDRLSSLKPKFVSVTYGANSGERDRTHSIIKGIKDRTGLEAAPHLTCIDATPDELRTIARDYWNNGIRHIVALRGDLPPGSGKPEMYASDLVTLLKEVADFDISVAAYPEVHPEAKSAQADLLNLKRKVDAGANRAITQFFFDVESYLRFRDRCVSAGIDVEIIPGILPVSNFKQAKKFADMTNVRIPAWMAQMFDGLDDDAETRKLVGANIAMDMVKILSREGVKDFHFYTLNRAEMSYAICHTLGVRPGL [P0AEZ1]")
2.96
>>> value_reported("MSWISPELIEILLTILKAVVILLVVVTCGAFMSFGERRLLGLFQNRYGPNRVGWGGSLQLVADMIKMFFKEDWIPKFSDRVIFTLAPMIAFTSLLLAFAIVPVSPGWVVADLNIGILFFLMMAGLAVYAVLFAGWSSNNKYSLLGAMRASAQTLSYEVFLGLSLMGVVAQAGSFNMTDIVNSQAHVWNVIPQFFGFITFAIAGVAVCHRHPFDQPEAEQELADGYHIEYSGMKFGLFFVGEYIGIVTISALMVTLFFGGWQGPLLPPFIWFALKTAFFMMMFILIRASLPRPRYDQVMSFGWKICLPLTLINLLVTAAVILWQAQ [P0AFD4]")
5.73
